Assignment: determine reported HEK-Blue activity, +100 nM BP, DF-100,000 for the given binders.
# Target Desc: T1, interleukin 18 binding protein (IL-18BP) (UniProt O95998 31-194); further: unit not given here
# T1 sequence (looked up): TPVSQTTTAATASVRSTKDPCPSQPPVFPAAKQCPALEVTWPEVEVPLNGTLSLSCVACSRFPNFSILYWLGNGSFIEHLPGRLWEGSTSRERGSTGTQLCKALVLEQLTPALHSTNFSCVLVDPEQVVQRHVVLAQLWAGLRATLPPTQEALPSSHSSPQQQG
# Assay Details: cell-based or functional assay
One number for each entry.

- Binder: "IL-18 variant T34N, S36Y, D37E, D40Q, N41Q, K53D, S55D (ligand) YFGKLESKLSVIRNLNDQVLFIDQGNRPLFEDMNDYEMRQQAPRTIFIISMYDDDQPRGMAVTISVKSEKISTLSSENKIISFKEMNPPDNIKDTKSDIIFFQRSVPGHDNKMQFESSSYEGYFLASEKERDLFKLILKKEDELGDRSIMFTVQNED"
  Data Value: 0.1
- Binder: "IL-18 variant T34E, N41D, K53N, S55R (ligand) YFGKLESKLSVIRNLNDQVLFIDQGNRPLFEDMEDSDMRDDAPRTIFIISMYNDRQPRGMAVTISVKSEKISTLSSENKIISFKEMNPPDNIKDTKSDIIFFQRSVPGHDNKMQFESSSYEGYFLASEKERDLFKLILKKEDELGDRSIMFTVQNED"
  Data Value: 0.13
- Binder: "IL-18 variant K53D, S55N, H109I (ligand) YFGKLESKLSVIRNLNDQVLFIDQGNRPLFEDMTDSDMRDNAPRTIFIISMYDDNQPRGMAVTISVKSEKISTLSSENKIISFKEMNPPDNIKDTKSDIIFFQRSVPGIDNKMQFESSSYEGYFLASEKERDLFKLILKKEDELGDRSIMFTVQNED"
  Data Value: 0.09
- Binder: "IL-18 variant T34M, S36T, D37E, D40T, N41M, K53T, S55W (ligand) YFGKLESKLSVIRNLNDQVLFIDQGNRPLFEDMMDTEMRTMAPRTIFIISMYTDWQPRGMAVTISVKSEKISTLSSENKIISFKEMNPPDNIKDTKSDIIFFQRSVPGHDNKMQFESSSYEGYFLASEKERDLFKLILKKEDELGDRSIMFTVQNED"
  Data Value: 0.12
- Binder: "IL-18 variant K53S, S55Y, P107M (ligand) YFGKLESKLSVIRNLNDQVLFIDQGNRPLFEDMTDSDMRDNAPRTIFIISMYSDYQPRGMAVTISVKSEKISTLSSENKIISFKEMNPPDNIKDTKSDIIFFQRSVMGHDNKMQFESSSYEGYFLASEKERDLFKLILKKEDELGDRSIMFTVQNED"
  Data Value: 0.14

Kindly give each listed record's HEK-Blue activity, +100 nM BP, DF-100,000.
1. IL-18 variant S36E, D37E, D40R, N41G, K53Y, S55F (ligand) YFGKLESKLSVIRNLNDQVLFIDQGNRPLFEDMTDEEMRRGAPRTIFIISMYYDFQPRGMAVTISVKSEKISTLSSENKIISFKEMNPPDNIKDTKSDIIFFQRSVPGHDNKMQFESSSYEGYFLASEKERDLFKLILKKEDELGDRSIMFTVQNED
2. IL-18 variant T34S, S36Y, D37N, D40E, N41Q, K53Y, S55I (ligand) YFGKLESKLSVIRNLNDQVLFIDQGNRPLFEDMSDYNMREQAPRTIFIISMYYDIQPRGMAVTISVKSEKISTLSSENKIISFKEMNPPDNIKDTKSDIIFFQRSVPGHDNKMQFESSSYEGYFLASEKERDLFKLILKKEDELGDRSIMFTVQNED
3. IL-18 variant K53H, S55R (ligand) YFGKLESKLSVIRNLNDQVLFIDQGNRPLFEDMTDSDMRDNAPRTIFIISMYHDRQPRGMAVTISVKSEKISTLSSENKIISFKEMNPPDNIKDTKSDIIFFQRSVPGHDNKMQFESSSYEGYFLASEKERDLFKLILKKEDELGDRSIMFTVQNED

**Result**
1: 0.19; 2: 0.09; 3: 0.09

FYI, the data here is from patent US20240182536A1.
